Assay: antimalarial activity against Dd2 strain (AID 2302);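 note: 0% = DMSO untreated growth and 100% = chloroquine plus artemisinin killed control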
Settings: P. falciparum Dd2 in RBCs, LDH growth readout, 72 h; at 2 µM
Active and inactive are the calls of the source.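 Rule for the calls: active = growth inhibition above 50% at the single 2 µM test dose, taken to imply half-maximal potency below 2 µM; inactive = the rest.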
Outcome codes: class 1 (active), class 0 (inactive)

COMPOUND: COc1cccc2c(NCCNc3ccnc4c(OC)cccc34)ccnc12
CLASSIFICATION: class 1

COMPOUND: Cc1cccc2[nH]c(-c3ccc(-c4ccc(NC(=O)Nc5ccc(Cl)c(Cl)c5)cc4)s3)nc12
CLASSIFICATION: class 1

COMPOUND: O=C(CCN1CCCCC1)Nc1ccc(Nc2nccc(NCC(O)c3ccccc3)n2)cc1 (centres undefined)
CLASSIFICATION: class 1

COMPOUND: COc1ccc(C(=O)N[C@@H](CC(C)C)C(=O)N[C@H](/C=N/NC(=O)c2ccccc2)CCc2ccccc2)cc1OCCN1CCOCC1
CLASSIFICATION: class 1

COMPOUND: CC(C)(C)c1ccc(-c2cc(C(=O)N[C@@H](CO)C(=O)O)on2)cc1 (tested in a mixture with another compound)
CLASSIFICATION: class 0

COMPOUND: Cc1cc(N[C@@H](Cc2ccccc2)C(=O)NCc2cccc(F)c2)nc(NCC2CCCCC2)n1
CLASSIFICATION: class 0

COMPOUND: Clc1ccc(Nc2nc(-c3ccccn3)cs2)nc1
CLASSIFICATION: class 1

COMPOUND: CCN(CC)CCOC(=O)c1ccc(NC(=O)c2cc(-c3ccc(C)cc3)nc3ccccc23)cc1
CLASSIFICATION: class 0

COMPOUND: CCc1c(C)nc(-n2nc(C)cc2NC(=O)CC(c2ccccc2)c2ccccc2)[nH]c1=O
CLASSIFICATION: class 1
